propertyLabel: melting point

[[record]]
molecule = "O=Cc1c(Cl)cccc1N1CCCC1"
recordedmeasurement = "69 to 71 °C"

[[record]]
molecule = "O=S(=O)(NC1CCCNC1)c1ccccc1 (stereo unspecified)"
recordedmeasurement = "133 to 135 °C"

[[record]]
molecule = "CCn1nccc1C=CC(=O)O"
recordedmeasurement = "151 to 153 °C"

[[record]]
molecule = "N#Cc1ccccc1SCC(=O)O"
recordedmeasurement = "143 to 145 °C"

[[record]]
molecule = "COC(=O)c1cc(S(=O)(=O)Cl)ccc1Cl"
recordedmeasurement = "79 to 81 °C"

[[record]]
molecule = "O=C1COc2c1ccc(Cl)c2Cl"
recordedmeasurement = "141 to 143 °C"


Origin of measurements: a melting point compilation (Tetko et al.)
